Biological target: T1, ALPL expressed on the surface of CHO cells (CHO-ALPL) (Homo sapiens, UniProt P05186)
T1 construct: expressed in transfected cells
T1 sequence (P05186 18-501 limits assumed): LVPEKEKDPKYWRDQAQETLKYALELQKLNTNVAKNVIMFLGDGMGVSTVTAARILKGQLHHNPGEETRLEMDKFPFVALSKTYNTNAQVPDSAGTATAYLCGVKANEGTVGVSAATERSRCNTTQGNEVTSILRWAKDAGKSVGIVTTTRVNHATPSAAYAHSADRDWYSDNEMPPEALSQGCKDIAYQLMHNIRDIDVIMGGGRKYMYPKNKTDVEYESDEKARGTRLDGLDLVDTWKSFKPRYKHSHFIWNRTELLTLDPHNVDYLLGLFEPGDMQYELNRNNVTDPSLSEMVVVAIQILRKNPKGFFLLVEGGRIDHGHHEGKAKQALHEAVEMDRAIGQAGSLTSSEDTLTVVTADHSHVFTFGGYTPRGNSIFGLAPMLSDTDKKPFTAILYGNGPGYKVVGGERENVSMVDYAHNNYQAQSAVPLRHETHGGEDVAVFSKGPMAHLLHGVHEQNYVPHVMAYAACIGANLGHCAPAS
Assay: Cell-surface binding by flow cytometry, CHO-ALPL
Settings: VHH His proteins
metric_name: KDapp CHO-ALPL

1) A06: ALPP/ALPPL2 targeting VHH domain, SEQ ID NO: 17; tested C-terminally His-tagged (protein, C-terminal His tag, tested C-terminally His-tagged) VHH: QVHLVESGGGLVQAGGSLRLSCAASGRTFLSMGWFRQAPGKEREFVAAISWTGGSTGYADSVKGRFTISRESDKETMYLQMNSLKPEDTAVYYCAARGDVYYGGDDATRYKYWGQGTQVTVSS : No binding
2) E06: ALPP/ALPPL2 targeting VHH domain, SEQ ID NO: 30 (protein) VHH: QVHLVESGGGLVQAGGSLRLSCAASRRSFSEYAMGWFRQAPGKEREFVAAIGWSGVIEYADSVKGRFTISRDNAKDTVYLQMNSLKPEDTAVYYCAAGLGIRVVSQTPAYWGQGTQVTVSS : No binding

Recorded values, source patent US20260216242A1.
